Data origin, for the record: the Immune Epitope Database (IEDB)

ASSAY_SYSTEM: HLA-A*01:01
ASSAY_OVERVIEW: IEDB peptide-MHC binding, purified MHC/competitive/fluorescence; bounds were set here for any values at or beyond the usual limits of such assays
TEST_CONTEXT: source organism: Zaire ebolavirus
READOUT_KIND: pIC50
Expect pIC50 as a plain number equal to -log10 of the molar concentration.

Request: I'd like to know its pIC50. The sequence in question is VVDPDDGSY
Response: 4.36

====

ASSAY_SYSTEM: HLA-A*26:01
ASSAY_OVERVIEW: IEDB peptide-MHC binding, purified MHC/competitive/radioactivity; filed as Kd, often an IC50 or EC50 that approximates it; bounds were set here for any values at or beyond the usual limits of such assays
TEST_CONTEXT: source organism: Mammarenavirus guanaritoense
Let's look at some sequences and their measured Kd.

CLERWMLVA ... ≥ 77900 nM

For the next question, use this sequence.
Request: What reported Kd corresponds to ESALNISGY on HLA-A*26:01?
Response: 118 nM

====

ASSAY_SYSTEM: HLA-A*02:03
ASSAY_OVERVIEW: IEDB peptide-MHC binding, purified MHC/competitive/radioactivity; filed as Kd, often an IC50 or EC50 that approximates it; bounds were set here for any values at or beyond the usual limits of such assays
TEST_CONTEXT: source organism: Vaccinia virus WR
READOUT_KIND: pKd
Expect pKd as a plain number equal to -log10 of the molar concentration.

These solved cases illustrate the format of a correct answer.
YVVIVENDNV ... 4.96
DIIDLLLPST ... 5.18
KINNNRIVAM ... 5.89

Request: I'd like to know its pKd. The sequence in question is IVYGRSNAI
Response: 7.80

Request: I'd like to know its pKd. The sequence in question is ALTDVEKRIL
Response: 6.90

Request: I'd like to know its pKd. The sequence in question is CVSNLDISSV
Response: 8.64

====

ASSAY_SYSTEM: HLA-A*32:01
ASSAY_OVERVIEW: IEDB peptide-MHC binding, purified MHC/competitive/radioactivity; filed as Kd, often an IC50 or EC50 that approximates it; bounds were set here for any values at or beyond the usual limits of such assays
TEST_CONTEXT: source organism: Mammarenavirus guanaritoense
pKd: −log10 of the molar value.
READOUT_KIND: pKd

Request: I'd like to know its pKd. The sequence in question is ESALNISGY
Response: ≤ 4.11

====

ASSAY_SYSTEM: HLA-B*15:01
ASSAY_OVERVIEW: IEDB peptide-MHC binding, purified MHC/direct/fluorescence; filed as Kd, often an IC50 or EC50 that approximates it; bounds were set here for any values at or beyond the usual limits of such assays
TEST_CONTEXT: source organism: Camelpox virus M-96
READOUT_KIND: Kd

Request: I'd like to know its Kd. The sequence in question is SLYKYLLLR
Response: ≥ 20 µM

====

ASSAY_SYSTEM: HLA-B*15:09
ASSAY_OVERVIEW: IEDB peptide-MHC binding, purified MHC/direct/fluorescence; filed as Kd, often an IC50 or EC50 that approximates it; bounds were set here for any values at or beyond the usual limits of such assays
TEST_CONTEXT: source organism: Mycobacterium tuberculosis str. Haarlem
READOUT_KIND: Kd

Request: I'd like to know its Kd. The sequence in question is RPRRASSPF
Response: ≥ 20 µM
